test system: 616215-338-R-J1-PDC tumor spheroids, viability; assay: Anticancer human tumor 616215-338-R-J1-PDC patient-derived colon adenocarcinoma cell line growth inhibition [GQUAD]; conditions: curve of first compound; second compound 3.16 µM; spheroids with HUVEC and MSC;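 note: spheroids exposed to agents for 7 days before readout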
For each record, write down the corresponding IC50.

If you can, please state the reported IC50 value of CCCS(=O)(=O)Nc1ccc(F)c(C(=O)c2c[nH]c3ncc(-c4ccc(Cl)cc4)cc23)c1F + Cc1cnc(CNC(=O)c2c(=O)c3ccc(N4CCCN(C)CC4)nc3n3c2sc2ccccc23)cn1 .
< 0.0316 µM

Request the reported IC50 associated with Cn1ncnc1[C@H]1c2n[nH]c(=O)c3cc(F)cc(c23)N[C@@H]1c1ccc(F)cc1 + Cc1cnc(CNC(=O)c2c(=O)c3ccc(N4CCCN(C)CC4)nc3n3c2sc2ccccc23)cn1
< 0.000999 µM

Would you kindly share the measured IC50 for COc1cc(C2c3cc4c(cc3C(OC3OC5COC(C)OC5C(O)C3O)C3COC(=O)C23)OCO4)cc(OC)c1O (centres undefined) + Cc1cnc(CNC(=O)c2c(=O)c3ccc(N4CCCN(C)CC4)nc3n3c2sc2ccccc23)cn1 ?
< 0.0316 µM

For the compound shown here, Cc1cccc(N(C)C(=O)C2C(O)CCN2c2nc(C)cc(C(F)(F)F)c2C#N)c1 (centres undefined) + CN(C)c1ccc(Nc2c3ccc(NC(=O)CCN4CCCC4)cc3nc3cc(NC(=O)CCN4CCCC4)ccc23)cc1 , give the reported IC50.
> 10 µM
